# TESTED_TARGET: Flag/GST-tagged recombinant human B-Raf (Homo sapiens)
# Construct: Flag; GST; E. coli (Mek-1-GST)
# Sequence (P15056 whole entry): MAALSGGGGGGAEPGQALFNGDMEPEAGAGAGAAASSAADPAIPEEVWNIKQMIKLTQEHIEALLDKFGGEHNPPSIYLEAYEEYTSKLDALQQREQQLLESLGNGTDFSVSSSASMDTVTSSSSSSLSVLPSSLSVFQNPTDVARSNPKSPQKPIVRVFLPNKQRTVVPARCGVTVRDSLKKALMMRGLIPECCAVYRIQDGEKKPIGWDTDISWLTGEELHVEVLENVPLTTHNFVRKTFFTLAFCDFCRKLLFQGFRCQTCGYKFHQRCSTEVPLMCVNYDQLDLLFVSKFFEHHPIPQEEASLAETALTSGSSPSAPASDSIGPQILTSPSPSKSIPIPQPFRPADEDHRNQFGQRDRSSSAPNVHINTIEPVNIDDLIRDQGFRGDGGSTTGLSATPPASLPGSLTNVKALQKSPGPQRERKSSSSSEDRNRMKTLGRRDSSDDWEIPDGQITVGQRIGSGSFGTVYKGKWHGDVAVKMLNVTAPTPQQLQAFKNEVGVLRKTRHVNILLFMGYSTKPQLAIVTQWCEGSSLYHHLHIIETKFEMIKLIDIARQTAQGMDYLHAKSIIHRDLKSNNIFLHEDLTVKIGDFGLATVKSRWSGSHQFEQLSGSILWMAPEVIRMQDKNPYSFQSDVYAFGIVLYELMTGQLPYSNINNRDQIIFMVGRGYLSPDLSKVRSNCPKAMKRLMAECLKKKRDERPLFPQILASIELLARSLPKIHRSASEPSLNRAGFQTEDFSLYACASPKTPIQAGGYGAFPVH
# PROTOCOL_DESCRIPTION: B-Raf Kinase to MEK1 ELISA
# TEST_CONDITIONS: phosphorylation of GST-MEK1 (50 nM final), phospho-MEK1 antibody/Europium readout; 60 minutes at RT
READOUT_TYPE: IC50 (nM)
Write the value in nM as a bare number.

The cases that follow already have their IC50 on record.
[
  {
    "COMPOUND_SMILES": "CCOC(=O)c1cnn2c1NCC=C2c1cccc(NC(=O)c2cccc(C(F)(F)F)c2)c1",
    "UNITS_SYMBOL": "nM",
    "IC50": 278
  },
  {
    "COMPOUND_SMILES": "CC(C)NC(=O)N1CC=C(c2cccc(NC(=O)c3cccc(C(F)(F)F)c3)c2)n2nccc21",
    "UNITS_SYMBOL": "nM",
    "IC50": 1620
  }
]

API: the following record is the query input.
// sample `CC(=O)N1CC=C(c2cccc(NC(=O)c3cccc(C(F)(F)F)c3)c2)n2nccc21` , its IC50 was 3770
